Numbers sourced from patent US9326945B2.

- assay.text: Aqueous solubility of apixaban
- Assay type: physicochemical
- condition.label: aqueous medium; at all physiological pH
value.type: solubility

Q: What value of solubility has been recorded for this entry: "COc1ccc(-n2nc(C(N)=O)c3c2C(=O)N(c2ccc(N4CCCCC4=O)cc2)CC3)cc1"
A: 40 µg/mL
